Biological target: Cathepsin L (Homo sapiens)
Test: Cathepsin L inhibition, fluorogenic peptide substrate kinetic assay (selectivity)
Assay type: biochemical
Conditions: ratio of cathepsin L inhibition constant to cathepsin S inhibition constant
endpoint-name: Selectivity for Cat. S over Cat. L

1. C[C@@H](CNc1ccc(OC(F)(F)F)cc1)NC(=O)[C@@H](CC(=O)N1CCOCC1)c1ccc(F)cc1	++ (++, >100)
2. CC(C)[C@@H](CNc1ccc(OC(F)(F)F)cc1)NC(=O)[C@H](CC(=O)N1CCOCC1)c1ccc(S(C)(=O)=O)cc1	++ (++, >100)
3. CC(=O)N1CCN(C(=O)C[C@@H](CC2CCCCC2)C(=O)N[C@@H](C)CNc2ccc(OC(F)(F)F)cc2)CC1	++ (++, >100)

* * *

Biological target: Cathepsin L (Homo sapiens, UniProt P07711)
Sequence (P07711 114-333, species assumed): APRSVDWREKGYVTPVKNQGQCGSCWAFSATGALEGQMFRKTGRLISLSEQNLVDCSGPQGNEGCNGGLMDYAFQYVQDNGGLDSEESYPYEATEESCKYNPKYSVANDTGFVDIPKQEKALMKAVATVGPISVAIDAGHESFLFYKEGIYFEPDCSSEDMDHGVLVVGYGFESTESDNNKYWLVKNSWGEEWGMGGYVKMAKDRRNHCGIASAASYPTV
Experiment: Cathepsin L inhibition, fluorogenic peptide substrate kinetic assay (selectivity)
Type: biochemical
Settings: ratio of cathepsin L inhibition constant to cathepsin S inhibition constant
endpoint-name: Selectivity for Cat. S over Cat. L

1. CC[C@@H](CNc1ccc(OC(F)(F)F)cc1)NC(=O)[C@@H](CC(=O)N1CCOCC1)CC1CCCCC1	+ (+, >10)
2. O=C(NCCN1CCc2cc(F)ccc21)[C@H](CC1CCCCC1)NC(=O)N1CCOCC1	+ (+, >10)
3. COc1ccc(NC[C@@H](NC(=O)[C@@H](CC(=O)N2CCOCC2)c2ccc(F)cc2)C(C)C)cn1	+ (+, >10)

* * *

Target: Cathepsin L (Homo sapiens, UniProt P07711)
Test: Cathepsin L inhibition, fluorogenic peptide substrate kinetic assay (selectivity)
Type: biochemical
Conditions: ratio of cathepsin L inhibition constant to cathepsin S inhibition constant
endpoint-name: Selectivity for Cat. S over Cat. L

Illustrative cases are given below, each with its answer.
1) Cc1ccc([C@H](CC(=O)N2CCOCC2)C(=O)N[C@H](CNc2ccc(OC(F)(F)F)cc2)C(C)C)cc1 [Example 57]	++ (++, >100)
2) CC1(C)CN(C[C@@H](NC(=O)[C@H](CC2CCCCC2)NC(=O)N2CCOCC2)C2CC2)c2ccc(F)cc21 [Example 81]	+ (+, >10)
3) C[C@@H](CN1CC(C)(C)c2cc(F)ccc21)NC(=O)[C@@H](CC(=O)N1CCOCC1)CC1CCCCC1 [Example 54]	++ (++, >100)
4) O=C(NCCNc1ccc(F)cc1)O[C@@H](CC1CCCCC1)C(=O)N1CCOCC1 [Example 5]	+ (+, >10)
5) CCC[C@@H](CNc1ccc(OC(F)(F)F)cc1)NC(=O)[C@@H](CC(=O)N1CCOCC1)CC1CCCC1 [Example 27]	++ (++, >100)

Ask: Name the recorded Selectivity for Cat. S over Cat. L for O=C(N[C@@H](CCc1ccccc1)CNc1ccc(OC(F)(F)F)cc1)[C@H](CCC1CCCC1)CC(=O)N1CCOCC1 [Example 37] .
Result: + (+, >10)

* * *

Target: Cathepsin S (Homo sapiens)
Sequence (P25774 115-331, species assumed): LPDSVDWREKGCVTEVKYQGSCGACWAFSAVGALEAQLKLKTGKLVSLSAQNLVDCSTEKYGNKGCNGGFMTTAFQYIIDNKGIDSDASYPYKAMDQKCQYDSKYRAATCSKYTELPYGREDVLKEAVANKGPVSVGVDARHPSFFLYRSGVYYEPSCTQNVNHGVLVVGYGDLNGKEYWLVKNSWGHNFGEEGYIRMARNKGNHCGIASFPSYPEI
Experiment: Cathepsin S inhibition, fluorogenic peptide substrate kinetic assay
Format: biochemical
pKi: −log10 of the molar value.
This listing pairs molecules with measured pKi.

Some entries whose results are on file:
1) CC[C@@H](CNc1ccc(OC(F)(F)F)cc1)NC(=O)[C@@H](CC(=O)N1CCOCC1)CC1CCCCC1	> 7.00
2) Cc1ccc([C@H](CC(=O)N2CCOCC2)C(=O)N[C@H](CNc2ccc(OC(F)(F)F)cc2)C(C)C)cc1	6.00 to 7.00
3) COc1ccc([C@H](CC(=O)N2CCOCC2)C(=O)N[C@H](CNc2ccc(OC(F)(F)F)cc2)C(C)C)cc1	6.00 to 7.00

Ask: Form entry - test system: Cathepsin S (Homo sapiens); read-out: pKi; molecule: CS(=O)(=O)CC[C@@H](CNc1ccc(OC(F)(F)F)cc1)NC(=O)[C@@H](CC(=O)N1CCOCC1)CC1CCCCC1
Result: > 7.00

Ask: Query the reported pKi for Cathepsin S (Homo sapiens); item: C[C@@H](CNc1ccc(OC(F)(F)F)cc1)NC(=O)[C@H](CCC(C)(C)C)CC(=O)N1CCOCC1
Result: 6.00 to 7.00

Ask: Entry O=C(NCCNc1ccc(F)cc1)[C@@H](CC(=O)N1CCOCC1)CC1CCCCC1 , system Cathepsin S (Homo sapiens): what pKi was measured?
Result: 5.00 to 6.00

Ask: Item: O=C(N[C@H](CNc1ccc(OC(F)(F)F)cc1)c1ccccc1)[C@@H](CC(=O)N1CCOCC1)c1ccccc1 Test system: Cathepsin S (Homo sapiens) Read-out: pKi Value: ?
Result: 6.00 to 7.00

Ask: Provide value of pKi for this record tested with Cathepsin S (Homo sapiens): CC(C)[C@@H](CNc1ccc(OC(F)(F)F)cc1)NC(=O)[C@@H](CC(=O)N1CCOCC1)c1ccccc1
Result: > 7.00

Ask: Cathepsin S (Homo sapiens) / pKi / CC(C)[C@@H](CNc1ccc(OC(F)(F)F)cc1)NC(=O)[C@@H](CC(=O)N1CCOCC1)c1ccc(F)cc1 : value?
Result: > 7.00

Ask: I'm curious: which pKi was measured for CC(C)[C@@H](CNc1ccc(OC(F)(F)F)cc1)NC(=O)[C@H](CC(=O)N1CCOCC1)c1ccc(Cl)cc1 tested on Cathepsin S (Homo sapiens)?
Result: 6.00 to 7.00

Ask: Request body: readout pKi, system Cathepsin S (Homo sapiens), query CC(C)[C@@H](CNc1ccc(OC(F)(F)F)cc1)NC(=O)[C@@H](CC(=O)N1CCOCC1)CC1CCCCC1 . Return the value.
Result: > 7.00

Ask: Write down the reported pKi of CC(C)[C@@H](CNc1ccc(OC(F)(F)F)cc1)NC(=O)[C@H](CCc1ccccc1)CC(=O)N1CCOCC1 , test system: Cathepsin S (Homo sapiens).
Result: > 7.00

Ask: Checklist item: pKi tested on Cathepsin S (Homo sapiens), entry CC(C)[C@@H](CNc1ccc(OC(F)(F)F)cc1)NC(=O)[C@@H](CC(=O)N1CCOCC1)CC1CCCC1 , value?
Result: > 7.00

Ask: Record lookup: for Cathepsin S (Homo sapiens), what pKi belongs to O=C(N[C@H](CNc1ccc(OC(F)(F)F)cc1)c1ccccc1)[C@@H](CC(=O)N1CCOCC1)CC1CCCCC1 ?
Result: > 7.00

Ask: Notebook entry, Cathepsin S (Homo sapiens) assay: pKi of CCC[C@@H](CNc1ccc(OC(F)(F)F)cc1)NC(=O)[C@@H](CC(=O)N1CCOCC1)CC1CCCCC1 = ?
Result: > 7.00

Ask: Lab note: need pKi with Cathepsin S (Homo sapiens) for entry O=C(N[C@@H](CCc1ccccc1)CNc1ccc(OC(F)(F)F)cc1)[C@@H](CC(=O)N1CCOCC1)CC1CCCCC1 , please look it up.
Result: > 7.00

Ask: // map C[C@@H](CNc1ccc(OC(F)(F)F)cc1)NC(=O)[C@@H](CC(=O)N1CCOCC1)c1ccc(C(F)(F)F)cc1 to recorded pKi (system: Cathepsin S (Homo sapiens))
Result: 5.00 to 6.00

Ask: // fetch Cathepsin S (Homo sapiens) pKi for O=C(NCCNc1ccc(OC(F)(F)F)cc1)[C@@H](CC(=O)N1CCOCC1)CC1CCCCC1
Result: 6.00 to 7.00

Ask: Recall the recorded pKi for O=C(N[C@@H](CCc1ccccc1)CNc1ccc(OC(F)(F)F)cc1)[C@@H](CC(=O)N1CCOCC1)c1ccccc1 with Cathepsin S (Homo sapiens) and state it.
Result: > 7.00

* * *

Molecular target: Cathepsin S (Homo sapiens)
Test: Cathepsin S inhibition, fluorogenic peptide substrate kinetic assay;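 further: cleavage rate of a coumarin-labelled peptide substrate (50 µM) read as fluorescence increase at Ex 380 nm and Em 450 nm, relative to inhibitor-free control reactions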
Type: biochemical
// reported Ki for each item listed

Ask: Given C[C@@H](CNc1ccc(OC(F)(F)F)cc1)NC(=O)[C@@H](CC(=O)N1CCOCC1)CC1CCCC1 [Example 15] , state its recorded Ki.
Result: < 100 nM

Ask: # Ki lookup, item O=C(N[C@@H](CCc1ccccc1)CNc1ccc(OC(F)(F)F)cc1)[C@H](CCC1CCCC1)CC(=O)N1CCOCC1 [Example 37]
Result: < 100 nM

Ask: Sample C[C@@H](CNc1ccc(OC(F)(F)F)cc1)NC(=O)[C@@H](CC(=O)N1CCOCC1)CC(C)(C)C [Example 26] — what was its Ki?
Result: 100 to 1000 nM

Ask: Fill in: Ki of C[C@@H](CNc1ccc(OC(F)(F)F)cc1)NC(=O)[C@H](CCC1CCCCC1)CC(=O)N1CCOCC1 [Example 21] is ___
Result: < 100 nM

Ask: I have this compound here, CC(C)[C@@H](CNc1ccc(OC(F)(F)F)cc1)NC(=O)[C@@H](CC(=O)N1CCOCC1)c1ccc(Cl)cc1 [Example 42] , and I need its recorded Ki.
Result: < 100 nM

* * *

Target: Cathepsin B (Homo sapiens)
Experiment: Cathepsin B inhibition, fluorogenic peptide substrate kinetic assay (selectivity);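 further: value is the cathepsin B inhibition constant divided by the cathepsin S one, each from kinetic fluorescence readings (ex 380 nm, em 450 nm) of a 10 µM coumarin peptide substrate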
Assay type: biochemical
Details: ratio of cathepsin B inhibition constant to cathepsin S inhibition constant
endpoint-name: Selectivity for Cat. S over Cat. B

Recorded results for 5 compounds are shown here.
1. Cc1cc(NC[C@H](C)NC(=O)[C@H](CC2CCCCC2)NC(=O)N2CCOCC2)no1	++ (++, >100)
2. C[C@@H](CN1CC(C)(C)c2cc(F)ccc21)NC(=O)[C@H](CC1CCCCC1)NC(=O)N1CCOCC1	+++ (+++, >1000)
3. C[C@@H](CNc1ccc(OC(F)(F)F)cc1)NC(=O)[C@@H](CC(=O)N1CCOCC1)CC1CCC2(CC1)CC2	++ (++, >100)
4. CC(C)[C@@H](CNc1ccc(OC(F)(F)F)cc1)NC(=O)[C@@H](CC(=O)N1CCOCC1)c1ccc(F)cc1	+++ (+++, >1000)
5. O=C(N[C@H](CNc1ccc(OC(F)(F)F)cc1)c1ccccc1)[C@H](CCC1CCCC1)CC(=O)N1CCOCC1	+++ (+++, >1000)

// switching to the query compound
Ask: Would you kindly share the measured Selectivity for Cat. S over Cat. B for O=C(N[C@H](CNc1ccc(OC(F)(F)F)cc1)c1ccccc1)[C@@H](CC(=O)N1CCOCC1)c1ccc(Cl)cc1 ?
Result: ++ (++, >100)
